Please go through the items and note down their Inhibitory activity (% of control), CDK6/cyclinD3(h).
- SYSTEM_TESTED: CDK6/cyclinD3(h) (Homo sapiens, UniProt Q00534)
- Sequence (Q00534 whole entry): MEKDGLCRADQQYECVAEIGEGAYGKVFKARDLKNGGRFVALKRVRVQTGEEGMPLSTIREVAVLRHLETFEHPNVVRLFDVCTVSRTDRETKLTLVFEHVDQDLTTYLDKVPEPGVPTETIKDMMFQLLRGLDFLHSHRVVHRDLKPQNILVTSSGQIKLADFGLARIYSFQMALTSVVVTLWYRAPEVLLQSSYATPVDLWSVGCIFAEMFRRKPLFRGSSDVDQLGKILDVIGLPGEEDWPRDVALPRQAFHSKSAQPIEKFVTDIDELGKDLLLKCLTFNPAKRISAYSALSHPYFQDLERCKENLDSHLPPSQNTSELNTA
- Sequence (P30281 whole entry partner): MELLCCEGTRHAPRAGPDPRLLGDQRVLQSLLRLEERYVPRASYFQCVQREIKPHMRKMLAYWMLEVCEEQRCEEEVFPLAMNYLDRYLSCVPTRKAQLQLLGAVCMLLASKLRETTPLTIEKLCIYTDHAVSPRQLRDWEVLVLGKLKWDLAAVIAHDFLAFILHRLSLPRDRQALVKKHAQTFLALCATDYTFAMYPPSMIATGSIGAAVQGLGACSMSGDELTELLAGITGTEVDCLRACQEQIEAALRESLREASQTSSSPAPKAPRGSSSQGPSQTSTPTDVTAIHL
- ASSAY: CDK6/cyclinD3(h) kinase assay
- Type: biochemical
- SETUP_CONDITIONS: 3 μM; percent of control kinase activity

Endpoint output: Inhibitory activity (% of control), CDK6/cyclinD3(h) of "COc1ccc2cc(-c3n[nH]c4ccc(-c5n[nH]c(CN6CCOCC6)n5)cc34)ccc2c1" . Value? 82 % of control

Input Fc1ccc(-c2n[nH]c3ccc(-c4n[nH]c(C5CCCC5)n4)cc23)cc1 [CC006, reference compound] 63 % of control

Query "CC(C)(C)Cc1nc(-c2ccc3[nH]nc(-c4ccc5cc(OCc6ccccn6)ccc5c4)c3c2)n[nH]1" next 80 % of control

# repeat for O=C(NC1CCCC1)c1cccc(-c2n[nH]c3ccc(-c4nc[nH]n4)cc23)c1 [CC007, reference compound] 87 % of control

Query "CCN1CCC[C@H]1COc1ccc2cc(-c3n[nH]c4ccc(-c5nc(CC(C)(C)C)n[nH]5)cc34)ccc2c1" next 29 % of control

Also, "CC(C)Cc1nc(-c2ccc3[nH]nc(-c4ccc5cc(OCCN6CCCC6)ccc5c4)c3c2)n[nH]1" please. 59 % of control
